tested on: Mycobacterium tuberculosis; test: Inhibition of Mycobacterium tuberculosis His6-tagged wild type InhA expressed in Escherichia coli BL21 at 50 uM using DDCoA as substrate relative to control
Give t when the value for inhibition is at least 30%. Give f when it is less.

**Query** Answer whether inhibition of `COc1ccc(C(=O)NNC(=O)c2ccc(-n3cccc3)cc2)cc1` is greater than or equal to 30%.
**Result** f

**Query** Let us now turn to `Cc1cccc(C(=O)NNC(=O)c2ccc(-n3cccc3)cc2)c1`
**Result** f

**Query** Let us now turn to `O=C(NNC(=O)c1ccc(-n2cccc2)cc1)c1ccc(Br)cc1`
**Result** t

**Query** Let us now turn to `O=C(NNC(=O)c1ccc(-n2cccc2)cc1)c1ccc(O)cc1`
**Result** f

**Query** Let us now turn to `Cc1ccccc1C(=O)NNC(=O)c1ccc(-n2cccc2)cc1`
**Result** f

====

Consider the following molecules and their measured MIC readings.
system: Mycobacterium tuberculosis; test: Antitubercular activity against Mycobacterium tuberculosis H37Rv after 5 days by microplate Alamar blue assay; type: functional; conditions: 120 h
Don't forget the unit after the number, please.

**Query** Entry `O=C(NNC(=O)c1cccc([N+](=O)[O-])c1)c1ccc(-n2cccc2)cc1` : reported MIC = ?
**Result** 25 µg/mL

**Query** Let us now turn to CO[C@H]1/C=C/O[C@@]2(C)Oc3c(C)c(O)c4c(O)c(c(/C=N/N5CCN(C)CC5)c(O)c4c3C2=O)NC(=O)/C(C)=C\C=C\[C@H](C)[C@H](O)[C@@H](C)[C@@H](O)[C@@H](C)[C@H](OC(C)=O)[C@@H]1C [RIFAMPIN]
**Result** 0.4 µg/mL

**Query** Let us now turn to `COc1ccc(C(=O)NNC(=O)c2ccc(-n3cccc3)cc2)cc1`
**Result** 12.5 µg/mL

**Query** Let us now turn to `O=C(NNC(=O)c1ccc(-n2cccc2)cc1)c1ccc(Cl)cc1`
**Result** 3.12 µg/mL

**Query** Let us now turn to `O=C(NNC(=O)c1cccc(Cl)c1)c1ccc(-n2cccc2)cc1`
**Result** 6.25 µg/mL

New cases:
**Query** Entry `Cc1ccc(C(=O)NNC(=O)c2ccc(-n3cccc3)cc2)cc1` : reported MIC = ?
**Result** 12.5 µg/mL

**Query** Let us now turn to `O=C(NNC(=O)c1ccc(-n2cccc2)cc1)c1ccc(Br)cc1`
**Result** 3.12 µg/mL

**Query** Let us now turn to CC[C@@H](CO)NCCN[C@@H](CC)CO [ETHAMBUTOL]
**Result** 0.5 µg/mL

**Query** Let us now turn to `O=C(NNC(=O)c1ccc(-n2cccc2)cc1)c1ccccc1`
**Result** 50 µg/mL

**Query** Let us now turn to `O=C(NNC(=O)c1ccc(Cl)cc1Cl)c1ccc(-n2cccc2)cc1`
**Result** 3.12 µg/mL

**Query** Let us now turn to `O=C(NNC(=O)c1ccc([N+](=O)[O-])cc1)c1ccc(-n2cccc2)cc1`
**Result** 12.5 µg/mL

**Query** Let us now turn to `Nc1ccc(C(=O)NNC(=O)c2ccc(-n3cccc3)cc2)cc1`
**Result** 12.5 µg/mL

**Query** Let us now turn to `Nc1cccc(C(=O)NNC(=O)c2ccc(-n3cccc3)cc2)c1`
**Result** 25 µg/mL

**Query** Let us now turn to `O=C(NNC(=O)c1ccccc1Br)c1ccc(-n2cccc2)cc1`
**Result** 3.12 µg/mL

**Query** Let us now turn to `O=C(NNC(=O)c1ccc(-n2cccc2)cc1)c1ccc(F)cc1`
**Result** 6.25 µg/mL

**Query** Let us now turn to `O=C(NNC(=O)c1ccc(-n2cccc2)cc1)c1ccc(O)cc1`
**Result** 12.5 µg/mL

**Query** Let us now turn to `Cc1cccc(C(=O)NNC(=O)c2ccc(-n3cccc3)cc2)c1`
**Result** 12.5 µg/mL

**Query** Let us now turn to `O=C(NNC(=O)c1ccccc1Cl)c1ccc(-n2cccc2)cc1`
**Result** 3.12 µg/mL

**Query** Let us now turn to `Nc1ccccc1C(=O)NNC(=O)c1ccc(-n2cccc2)cc1`
**Result** 12.5 µg/mL

**Query** Let us now turn to `CC(=O)c1cccc(C(=O)NNC(=O)c2ccc(-n3cccc3)cc2)c1`
**Result** 12.5 µg/mL

**Query** Let us now turn to `Cc1ccccc1C(=O)NNC(=O)c1ccc(-n2cccc2)cc1`
**Result** 12.5 µg/mL

The values you see were collected from ChEMBL document CHEMBL4002565.
